# System name: Alpha-bungarotoxin (Bungarus multicinctus)
# Protocol details: compounds binding labelled alpha-BTX control protein – biochemical, small-molecule microarray, Alexa647 label, 635/667 nm fluorescence, artefact control for SMM control protein annotation, profiling panel (AID 1117)
# Conditions: alpha-BTX-A647 binding fluorescence, higher = more signal
Endpoint label: composite z-score

// solved cases for composite z-score follow
Molecule	System name	composite z-score
C=CCC(OC(C)=O)[C@@H]1[C@@H](N(Cc2ccc(-c3ccccc3)cc2)C(=O)c2cccc3ccccc23)c2cc(OCCCO)ccc2N1C(=O)c1ccc2ccccc2n1 (stereo partly drawn)	Alpha-bungarotoxin (Bungarus multicinctus)	0.382
C=CCC(OC(C)=O)[C@@H]1[C@@H](N(Cc2cccc3ccccc23)C(=O)c2ccc(C)cc2)c2cc(OCCCO)ccc2N1C(=O)c1ccc2ccccc2c1 (stereo partly drawn)	Alpha-bungarotoxin (Bungarus multicinctus)	0.132

Briefly, composite z-score measured for `C[N+](C)(C)CCCC[C@@H]1NC(=O)[C@H]2C[C@@H](C(=O)NCCCCCCN)[C@@H](c3cccc(OCCO)c3)N2C1=O` : 0.995
